- test_system: LIM domain kinase 1 (Homo sapiens, UniProt P53667)
- Sequence (P53667 whole entry, the tested form may be a part): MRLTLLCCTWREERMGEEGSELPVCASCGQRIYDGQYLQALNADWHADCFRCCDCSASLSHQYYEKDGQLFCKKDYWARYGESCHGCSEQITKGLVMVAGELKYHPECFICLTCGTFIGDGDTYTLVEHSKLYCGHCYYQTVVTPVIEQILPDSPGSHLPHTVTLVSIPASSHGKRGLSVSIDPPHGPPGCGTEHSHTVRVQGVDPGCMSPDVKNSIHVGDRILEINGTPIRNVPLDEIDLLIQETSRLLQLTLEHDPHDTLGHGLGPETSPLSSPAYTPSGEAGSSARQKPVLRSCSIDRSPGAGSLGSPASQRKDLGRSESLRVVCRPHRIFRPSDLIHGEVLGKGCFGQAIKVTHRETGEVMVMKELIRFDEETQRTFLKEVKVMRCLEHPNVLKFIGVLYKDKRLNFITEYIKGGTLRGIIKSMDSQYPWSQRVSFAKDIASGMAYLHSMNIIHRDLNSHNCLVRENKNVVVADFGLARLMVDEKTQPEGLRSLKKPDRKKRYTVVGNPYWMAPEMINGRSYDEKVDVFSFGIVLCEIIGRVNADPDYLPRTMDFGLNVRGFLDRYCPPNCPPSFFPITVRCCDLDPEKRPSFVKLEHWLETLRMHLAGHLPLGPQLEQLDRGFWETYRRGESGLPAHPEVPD
- method: Inhibition of LIMK1 using cofilin-2 as substrate after 60 mins by Kinase-Glo assay
recorded_endpoint: IC50 (µM)

Nc1ncnc2sc3c(c12)CCC(C(=O)N1CCOCC1)C3 (stereo not given); 9.5
CC1(C)Cc2c(sc3ncnc(N)c23)CO1; 12.7
Nc1ncnc2sc3c(c12)CCCCC3; 2.5
CCOC(=O)C1CCc2c(sc3ncnc(N)c23)C1 (stereo not given); 2.3
Nc1ncnc2c1sc1ccccc12; 7
CC1(C)CCc2c(sc3ncnc(N)c23)C1; 2.8
Nc1ncnc2sc3c(c12)CCC3; 5.3
Cc1c(-c2ccccc2)sc2ncnc(N)c12; 17

(A) CC1CCc2c(sc3ncnc(N)c23)C1 (stereo not given)
(B) Nc1ncnc2c1sc1ncccc12
(Q) Returns the identifier with the smallest measured IC50 among A and B . Which one? Tell me its label.
(A) B

(1) NC(=O)c1sc2ccccc2c1N
(2) Cc1sc2ncnc(N)c2c1C
(Q) Returns the identifier with the smallest measured IC50 among 1 and 2 . Which one? Tell me its label.
(A) 2
(2: 4.4 µM, 1: 33 µM)

----------
molecules and their reported IC50
- test_system: LIM domain kinase 1 (Homo sapiens)
- method: Inhibition of LIMK1 using cofilin-2 as substrate after 60 mins by Kinase-Glo assay

Nc1ncnc2sc3c(c12)CCC(c1ccccc1)C3 (stereo not drawn); > 20 µM
Nc1nc(-c2cccs2)nc2sc3c(c12)CCCC3; > 100 µM

Could you now look at the following molecule, please?
(Q) GET /values?readout=IC50&item= Nc1ncnc2sc3c(c12)CCC(C(=O)O)C3 (stereo not drawn)
(A) > 20 µM
